# test_summary: chemical genetic growth profiling, strain panel (AID 1159580);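 note: tested at 20 µM; growth read once vehicle control cultures reached saturation at 30 °C; lower values mean less growth of the strain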
# measurement_setup: S. cerevisiae deletion strains, growth OD, locus YOR119C, strain RIO1
The campaign covered roughly 5,500 compounds. About 2,000 (36%) were called active. Inconclusive results (about 18%) are left out. Cut-off read from the data, not from the text of the source: active = normalized growth mostly below about 0.91 (no sharp cut-off); inconclusive = no clear call, values can overlap the other calls; inactive = mostly above about 0.92. The list shows a part of the results.
Pick from active, inactive when you respond.

Example entries begin here.
N#C/C(=N/Nc1ccccc1)C(=O)c1ccccc1OC(F)(F)F : inactive
N/C(Cn1ccc(C(F)(F)F)n1)=N/OS(=O)(=O)c1cccc(Cl)c1Cl : inactive
CC(C)(C)c1ccc(N/N=C(\C#N)C(N)=O)cc1 : active

Per the records of this test, what outcome belongs to "CC(=O)/C(C#N)=N\Nc1ccc(F)cc1" ?
active

Can you handle "O=C(Oc1cccc2[nH]ccc12)c1ccc(C(F)(F)F)cc1" next?
inactive

Can you handle "CC(=O)c1ccc(Cl)c(NS(=O)(=O)c2cc(Cl)c(Cl)cc2Cl)c1" next?
inactive
